- System: MRC5 cells
- assay-notes: Cell viability assay in MRC5 cells (MTT)
- condition-description: 300 nM
quantity-measured: Cell viability at 300 nM (%)
Return type: number; implicit unit %.

# count of solved cases: 2
[
  {
    "item-smiles": "COC(=O)c1ccc2c(c1)NC(=O)/C2=C(\\Nc1ccc(C(=O)NOCCN2CCS(=O)(=O)CC2)cc1)c1ccccc1",
    "Cell viability at 300 nM (%)": 96.1
  },
  {
    "item-smiles": "COC(=O)c1ccc2c(c1)NC(=O)/C2=C(\\Nc1ccc(C(=O)NOCCN2CCN(C)CC2)c(F)c1)c1ccccc1",
    "Cell viability at 300 nM (%)": 101.3
  }
]

Task: What does the data say about its Cell viability at 300 nM (%)? Entry: COC(=O)c1ccc2c(c1)NC(=O)/C2=C(\Nc1ccc(C(=O)NOCCN(C)C)cc1)c1ccccc1
Output: 85.4

Task: Reported Cell viability at 300 nM (%), molecule COC(=O)c1cc2c(cc1C)/C(=C(/Nc1ccc(C(=O)NOCCN3CCCCC3)cc1)c1ccccc1)C(=O)N2 : ____
Output: 110.8
